Sequence of the target: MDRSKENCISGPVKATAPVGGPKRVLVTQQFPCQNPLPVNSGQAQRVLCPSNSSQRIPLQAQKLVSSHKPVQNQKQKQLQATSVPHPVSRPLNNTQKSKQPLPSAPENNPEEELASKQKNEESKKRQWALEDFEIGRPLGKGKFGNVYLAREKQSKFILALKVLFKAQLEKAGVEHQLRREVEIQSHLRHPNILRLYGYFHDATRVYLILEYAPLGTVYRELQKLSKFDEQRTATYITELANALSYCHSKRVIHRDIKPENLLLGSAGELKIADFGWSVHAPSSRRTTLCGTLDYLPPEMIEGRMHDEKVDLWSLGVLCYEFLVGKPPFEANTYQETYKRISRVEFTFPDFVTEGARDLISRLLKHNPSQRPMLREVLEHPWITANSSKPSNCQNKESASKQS
Structures can show the parent of a compound that is named as a salt.
quantity_name: pIC50
Answers are plain numbers, as −log10 of the molar value.

Please review the entries below; each comes with its answer.
Please look up its pIC50: CNC(=O)c1cc(CN2CCN(C(=O)c3cccc(Cl)c3F)CC2)nc(Nc2nccs2)c1 [Example 85, trifluoroacetate] 9.00

Please look up its pIC50: Cn1nnnc1-c1cc(CN2CCN(C(=O)c3cccc(Cl)c3F)CC2)nc(Nc2nccs2)c1 [Example 106] 9.06

Please look up its pIC50: NC(=O)c1cc(CN2CCN(C(=O)c3cccc(Cl)c3F)CC2)nc(Nc2nccs2)c1 [Example 87, trifluoroacetate] 8.92

Please supply pIC50 for each of the following items, keeping them in order.
1. O=C(NCCO)c1cc(CN2CCN(C(=O)c3cccc(Cl)c3F)CC2)nc(Nc2nccs2)c1 [Example 88, trifluoroacetate]
2. Cc1cc(Nc2cccc(CN3CCN(C(=O)c4cccc(C(F)(F)F)c4F)CC3)n2)n[nH]1 [Example 29]

1. 9.14
2. 9.01
